Target: T1, Peptide 4: Biotin-AGGGGSGGGGSGGGGSAAA-Tyr-acid (N-terminal biotin; C-terminal acid)
T1 construct: Control peptide without PC
T1 peptide: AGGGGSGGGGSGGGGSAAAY
Assay: scFv ELISA
readout.type: OD450 (OD450)
Quick note: give the figure in OD450, leave out the unit.

Problem: Form field: reported OD450 of PcOxP_DB03_F07 (scFv, V domains shown, scFv in periplasmic extract) VH: EVQLLESGGGLVQPGGSLRLSCAASGFTQSDFYMEWVRQAPGKGLEWVAASRNKGNSYTTAYADSVKGRFTISRDNSKNTLYLQMNSLRAEDTAVYYCARDYYGSSYWYFDVWGQGTLVTVSS VL: DIVMTQSPDSLAVSLGERATINCTASESLYSGKHKVHYLAWYQQKPGQPPKLLIYGASNRYIGVPDRFSGSGSGTDFTLTISSLQAEDVAVYYCAQFYSYPLTFGGGTKVEIK
Solution: 0.05

Problem: Which value of OD450 has been reported for PcOxP_DB02_G02 (scFv, V domains shown, scFv in periplasmic extract) VH: EVQLLESGGGLVQPGGSLRLSCAASGFGFSDFYMEWVRQAPGKGLEWVAASRNKANDYTTEYADSVKGRFTISRDNSKNTLYLQMNSLRAEDTAVYYCARDYYGSSYWYFDVWGQGTLVTVSS VL: DIVMTQSPDSLAVSLGERATINCTASESLYSSKHKVHYLAWYQQKPGQPPKLLIYGASNRYSGVPDRFSGSGSGTDFTLTISSLQAEDVAVYYCAQFYSYPLTFGGGTKVEIK in the records?
Solution: 0.04

Problem: Would you kindly share the measured OD450 for PcOxP_DB02_G03 (scFv, V domains shown, scFv in periplasmic extract) VH: EVQLLESGGGLVQPGGSLRLSCAASGFGFSDFYMEWVRQAPGKGLEWVAASRNKANDYTTEYADSVKGRFTISRDNSKNTLYLQMNSLRAEDTAVYYCARDYYGSSYWYHDVWGQGTLVTVSS VL: DIVMTQSPDSLAVSLGERATINCTASEDLYSSKHKVHYLAWYQQKPGQPPKLLIYGTSNRYIGVPDRFSGSGSGTDFTLTISSLQAEDVAVYYCAQYYSYPLTFGGGTKVEIK ?
Solution: 0.05

Problem: Fill in the blank: the reported OD450 of PcOxP_DB03_A06 (scFv, V domains shown, scFv in periplasmic extract) VH: EVQLLESGGGLVQPGGSLRLSCAASGFTFSSYYMEWVRQAPGKGLEWVAASRSKANDYTTEYADSVKGRFTISRDNSKNTLYLQMNSLRAEDTAVYYCARDYYGSQYWYFDVWGQGTLVTVSS VL: DIVMTQSPDSLAVSLGERATINCTASESLYSNKHKVHYLAWYQQKPGQPPKLLIYGASNRYIGVPDRFSGSGSGTDFTLTISSLQAEDVAVYYCAQFYSYPLTFGGGTKVEIK is ____.
Solution: 0.05
